Known pIC50 of a selection of molecules
testedSystem: ALK2 (Homo sapiens)
Sequence (Q04771 21-509): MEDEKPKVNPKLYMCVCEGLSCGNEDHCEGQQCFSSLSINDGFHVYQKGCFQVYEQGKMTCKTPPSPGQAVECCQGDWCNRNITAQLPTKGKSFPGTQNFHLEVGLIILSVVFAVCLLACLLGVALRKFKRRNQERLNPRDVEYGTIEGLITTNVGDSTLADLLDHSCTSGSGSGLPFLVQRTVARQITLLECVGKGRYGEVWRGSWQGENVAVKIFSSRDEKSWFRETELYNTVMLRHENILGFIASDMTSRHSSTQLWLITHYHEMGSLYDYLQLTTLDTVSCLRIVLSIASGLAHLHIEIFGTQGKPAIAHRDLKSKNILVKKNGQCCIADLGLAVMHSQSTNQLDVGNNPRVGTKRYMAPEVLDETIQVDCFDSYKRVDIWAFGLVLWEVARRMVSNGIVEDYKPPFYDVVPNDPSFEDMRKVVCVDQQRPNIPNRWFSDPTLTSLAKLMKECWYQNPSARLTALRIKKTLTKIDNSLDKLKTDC
assayDetails: TR-FRET enzymatic ALK kinase assay, ALK2
Counter-ions that a name gives are not always drawn.
For clarity, pIC50 is expressed as the negative log10 of concentration in mol/L.

// worked examples, pIC50 included
NC1(c2ccc(-c3cnc4c(-c5ccc(S(N)(=O)=O)c6ccccc56)cnn4c3)cc2)CC1 [Compound 192] :: 7.30
CC(C)S(=O)(=O)c1cccc(-c2cnn3cc(-c4ccc(N5[C@H](C)CNC[C@@H]5C)cc4)cnc23)c1 [Compound 114] :: 7.49
NS(=O)(=O)c1cccc(-c2cnn3cc(-c4ccc(CCN5CCCCC5)cc4)cnc23)c1 [Compound 75] :: 6.92
CC(=O)c1ccc(-c2cnn3cc(-c4ccc(N5[C@H](C)CNC[C@@H]5C)cc4)cnc23)c2ccccc12 [Compound 27] :: 7.72
CC(O)c1cccc(-c2cnn3cc(-c4ccc(C(F)(F)CN5CCCCC5)cc4)cnc23)c1 (stereo not drawn) [Compound 127] :: 5.77
C[C@@H](O)c1cccc(-c2cnn3cc(-c4ccc(OCCN5CCCC5)cc4)cnc23)c1 [Compound 160] :: 6.72
C[C@@H]1CNC[C@H](C)N1c1ccc(-c2cnc3c(-c4ccc(-c5nn[nH]n5)c5ccccc45)cnn3c2)cc1 [Compound 26] :: 7.89
CS(=O)(=O)c1cccc(-c2cnn3cc(-c4ccc(CCn5ccnc5)cc4)cnc23)c1 [Compound 133] :: 6.64

Documented pIC50 of CS(=O)(=O)c1cccc(-c2cnn3cc(-c4ccc(OC5(CN6CCNCC6)CC5)cc4)cnc23)c1 [Compound 169] : 7.28

pIC50 in this record for CC(O)c1cccc2c(-c3cnn4cc(-c5ccc(N6[C@H](C)CNC[C@@H]6C)cc5)cnc34)cccc12 (stereo partly drawn) [Compound 33] : 6.44

For record CS(=O)(=O)c1cccc(-c2cnn3cc(-c4ccc(CC5CCNCC5)cc4)cnc23)c1 [Compound 126, TFA] the listed pIC50 is 6.55

# pIC50 of C[C@@H](O)c1cccc(-c2cnn3cc(-c4ccc(OC5(CN6CCCCC6)CC5)cc4)cnc23)c1 [Compound 152] = 7.27

Briefly, pIC50 measured for CS(=O)(=O)c1cc(-c2cnn3cc(-c4ccc(CCN5CCCCC5)cc4)cnc23)cc(C(F)(F)F)c1 [Compound 172] : 5.92

Documented pIC50 of NC(c1cccc(-c2cnn3cc(-c4ccc(OC5(CN6CCOCC6)CC5)cc4)cnc23)c1)C(F)(F)F (stereo not drawn) [Compound 181] : 7.15

The reported pIC50 of the molecule C[C@@H]1CNC[C@H](C)N1c1ccc(-c2cnc3c(-c4ccc(F)c(-c5nnn[nH]5)c4)cnn3c2)cc1 [Compound 72] was 7.80

---

testedSystem: ALK2 (Mus musculus)
Construct: The C2C12 cell line was selected for the measurement of ALK2 activity using BMP6 as the agonist; host or cells: C2C12
Sequence (P37172 21-509): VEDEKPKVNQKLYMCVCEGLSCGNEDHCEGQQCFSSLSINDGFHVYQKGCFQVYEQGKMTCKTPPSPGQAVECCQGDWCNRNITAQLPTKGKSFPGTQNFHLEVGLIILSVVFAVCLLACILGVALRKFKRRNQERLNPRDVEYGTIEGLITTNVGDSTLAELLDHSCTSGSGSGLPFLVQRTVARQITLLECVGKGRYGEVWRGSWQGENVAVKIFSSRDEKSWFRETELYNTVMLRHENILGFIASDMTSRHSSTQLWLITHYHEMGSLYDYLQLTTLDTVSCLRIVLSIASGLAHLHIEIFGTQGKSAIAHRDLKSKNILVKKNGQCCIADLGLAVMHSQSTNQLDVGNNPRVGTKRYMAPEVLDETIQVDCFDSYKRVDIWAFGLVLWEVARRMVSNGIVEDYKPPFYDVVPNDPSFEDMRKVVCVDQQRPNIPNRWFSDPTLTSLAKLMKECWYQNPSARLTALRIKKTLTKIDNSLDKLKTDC
assayDetails: HTRF pSMAD1 cell-based ALK2 assay (C2C12 cells, BMP6 as agonist)
conditionDetails: cell-based assay, BMP6; read-out: Cell IC50 BMP6
A collection of compounds and their measured pIC50
Bear in mind: pIC50 is minus log10 of a mol/L concentration; give just that figure.

Example compounds with recorded pIC50:
C[C@@H]1CNC[C@H](C)N1c1ccc(-c2cnc3c(-c4cccc(S(C)(=O)=O)c4)cnn3c2)cc1 [Compound 82] :: 9.00
NC(=O)c1cccc2c(-c3cnn4cc(-c5ccc(N6CCNCC6)cc5)cnc34)cccc12 [Compound 6] :: 7.68
Cc1ccc(-c2cnn3cc(-c4ccc(N5[C@H](C)CNC[C@@H]5C)cc4)cnc23)cc1S(N)(=O)=O [Compound 55] :: 5.32

Query c1cc(-c2cc[nH]n2)cc(-c2cnn3cc(-c4ccc(CCN5CCCCC5)cc4)cnc23)c1 [Compound 90] yields pIC50 of 6.40
